Biological target: Tyrosine-protein phosphatase non-receptor type 1 (Homo sapiens, UniProt P18031)
Sequence (P18031 whole entry): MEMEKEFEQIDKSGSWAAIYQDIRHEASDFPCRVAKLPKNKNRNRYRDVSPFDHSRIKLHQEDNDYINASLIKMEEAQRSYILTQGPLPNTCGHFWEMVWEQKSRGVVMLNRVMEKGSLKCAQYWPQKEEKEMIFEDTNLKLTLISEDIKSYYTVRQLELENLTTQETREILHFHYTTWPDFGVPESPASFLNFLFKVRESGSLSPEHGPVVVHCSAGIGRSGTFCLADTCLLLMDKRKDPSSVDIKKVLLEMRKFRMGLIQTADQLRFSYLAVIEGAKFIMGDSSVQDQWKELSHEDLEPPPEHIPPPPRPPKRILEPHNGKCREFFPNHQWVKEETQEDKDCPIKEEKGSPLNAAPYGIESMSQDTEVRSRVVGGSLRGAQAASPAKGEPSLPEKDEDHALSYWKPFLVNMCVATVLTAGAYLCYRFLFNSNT
experimental_readout: IC50 (µM)
Use µM as the unit, but write only the number.

Consider the reported IC50 for these compounds:
compound: COc1c(C2=NOC(c3ccccc3)C2)ccc2occc12 (centres undefined)
IC50, µM: 227

compound: COc1ccc(C2CC(c3cc(OC)c4occc4c3OC)=NO2)cc1 (centres undefined)
IC50, µM: 81

compound: COc1c(C2=NOC(c3ccccc3)C2)cc(OC)c2occc12 (centres undefined)
IC50, µM: 76

Let us move to another entry and its IC50.
Query: Output measured IC50 for this item: COc1ccc(C2CC(c3ccc4occc4c3OC)=NO2)cc1 (centres undefined)
Result: 150

###

Biological target: Tyrosine-protein phosphatase non-receptor type 1 (Homo sapiens)
Assay: Inhibition of PTP1B at 100 uM
experimental_readout: inhibition (%)
Field: numeric (%). Do not append units.

Below are worked cases with known answers.
compound: COc1c(C2=NOC(c3ccncc3)C2)ccc2occc12 (stereo not given)
experimental_value: 14.7
//
compound: COc1c(C2=NOC(c3ccccn3)C2)cc(OC)c2occc12 (stereo not given)
experimental_value: 18.4
//
compound: COC(=O)C1C(c2ccc3occc3c2OC)=NOC1c1ccccc1 (stereo not given)
experimental_value: 18.5
//
compound: COc1ccc(C2CC(c3cc(OC)c4occc4c3OC)=NO2)cc1 (stereo not given)
experimental_value: 79.6
//
compound: COc1ccc(C2CC(c3ccc4occc4c3OC)=NO2)cc1 (stereo not given)
experimental_value: 49.1
//
compound: COc1c(C2=NOC(n3ccnc3)C2)ccc2occc12 (stereo not given)
experimental_value: 14.9
//
compound: COc1c(C2=NOC(c3ccccc3)C2)ccc2occc12 (stereo not given)
experimental_value: 22.5
//
compound: COc1c(-c2ccccc2)oc2c(ccc3occc32)c1=O
experimental_value: 15.8
//
compound: COc1c(C2=NOC(c3ccccc3)C2)cc(OC)c2occc12 (stereo not given)
experimental_value: 80.4

Query: Identify measured inhibition corresponding to COc1c(C2=NOC(c3ccccn3)C2)ccc2occc12 (stereo not given)
Result: 17.4

###

Protein target, amino acids: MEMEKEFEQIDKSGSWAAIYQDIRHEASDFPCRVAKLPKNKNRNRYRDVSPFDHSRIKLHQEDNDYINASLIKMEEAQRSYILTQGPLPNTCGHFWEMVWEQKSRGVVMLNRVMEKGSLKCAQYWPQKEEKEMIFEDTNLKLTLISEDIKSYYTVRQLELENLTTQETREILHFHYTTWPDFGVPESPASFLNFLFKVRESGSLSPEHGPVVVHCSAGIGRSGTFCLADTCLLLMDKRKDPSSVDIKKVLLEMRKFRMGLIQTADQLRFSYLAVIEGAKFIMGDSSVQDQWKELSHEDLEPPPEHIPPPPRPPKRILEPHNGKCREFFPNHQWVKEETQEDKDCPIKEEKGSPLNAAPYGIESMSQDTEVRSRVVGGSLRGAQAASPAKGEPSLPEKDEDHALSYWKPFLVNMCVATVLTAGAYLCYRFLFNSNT
Catalogue of pKi readings, one per entry.
Entry type: numeric. Quantity: pKi, the -log10 of concentration in molar units.

Examples with their reported pKi follow.
compound: COc1ccc(C2CC(c3cc(OC)c4occc4c3OC)=NO2)cc1 (stereo not drawn)
experimental_value: 4.49
--
compound: COc1c(C2=NOC(c3ccccc3)C2)cc(OC)c2occc12 (stereo not drawn)
experimental_value: 4.52

Let's switch to this compound now.
Query: Give recorded pKi. COc1ccc(C2CC(c3ccc4occc4c3OC)=NO2)cc1 (stereo not drawn)
Result: 4.56
